study-system: T1, human CCR8 (human, UniProt P51685 1-355)
T1 construct: whole, on cells; also called hCCR8
T1 sequence (P51685 whole entry): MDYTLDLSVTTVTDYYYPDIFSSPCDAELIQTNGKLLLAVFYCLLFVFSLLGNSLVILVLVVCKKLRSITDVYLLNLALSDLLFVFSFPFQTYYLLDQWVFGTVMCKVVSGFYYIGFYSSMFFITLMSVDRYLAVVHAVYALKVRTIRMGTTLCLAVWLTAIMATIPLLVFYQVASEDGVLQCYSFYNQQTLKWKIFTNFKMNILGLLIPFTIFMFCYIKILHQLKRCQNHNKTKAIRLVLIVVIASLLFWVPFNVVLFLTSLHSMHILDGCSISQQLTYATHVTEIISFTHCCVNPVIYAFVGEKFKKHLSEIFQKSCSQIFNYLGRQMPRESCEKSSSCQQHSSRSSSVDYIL
test-description: FACS, competition with CCL1 on CHO-K1-human CCR8 cells
recorded-metric: IC50 (pM)
Note: unit pM is implicit; provide only the numeric part.

[[record]]
binder = "Hu149-22 (antibody, human IgG1, V domains shown, human IgG1) VH: EVQLVESGGGLVQPGGSLKLSCAASGFTFNTYAMNWVRQASGKGLEWVGRIRSKSNFYATAYAASVKGRFTISRDDSKNTAYLQMNSLKTEDTAVYYCTRGREYGSAYAMDYWGQGTLVTVSS VL: DIVMTQSPLSLPVTPGEPASISCRSSKSLLHSNANTYLYWFLQKPGQSPQLLIYRMSNLASGVPDRFSGSGSGTDFTLKISRVEAEDVGVYYCMQHLKYPLTFGGGTKVELK"
recorded_metric = "IC50"
obs_value = 459

[[record]]
binder = "Hu149-13 (antibody, human IgG1, V domains shown, human IgG1) VH: EVQLVESGGGLVQPGGSLKLSCAASGFTFNTYAMNWVRQASGKGLEWVGRIRSKSNFYATAYAASVKGRFTISRDDSKNTAYLQMNSLKTEDTAVYYCTRGREYGRSYAMDYWGQGTLVTVSS VL: DIVMTQSPLSLPVTPGEPASISCRSSKSLLHSNANTYLYWFLQKPGQSPQLLIYRMSNLASGVPDRFSGSGSGTDFTLKISRVEAEDVGVYYCMQHLEYPLTFGGGTKVELK"
recorded_metric = "IC50"
obs_value = 84.1


Looking up Hu149-23 (antibody, human IgG1, V domains shown, human IgG1) VH: EVQLVESGGGLVQPGGSLKLSCAASGFTFNTYAMNWVRQAPGKGLEWVGRIRSKSNFYATAYAASVKGRFTISRDDSKNTAYLQMNSLKTEDTAVYYCTRGREYGSSYAMDYWGQGTLVTVSS VL: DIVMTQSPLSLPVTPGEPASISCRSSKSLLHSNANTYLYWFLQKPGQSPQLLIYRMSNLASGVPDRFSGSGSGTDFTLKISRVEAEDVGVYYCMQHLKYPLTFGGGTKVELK , I found its IC50 recorded as 259
